Entry source: ChEMBL document CHEMBL3421560

# target: DNA gyrase (Escherichia coli, UniProt P0AES4+P0AES6)
# assay name: Inhibition of Escherichia coli DNA gyrase after 1 hr by agarose gel electrophoresis
pIC50: −log10 of the molar value.
recorded endpoint: pIC50

- CCCc1nn(CN2CCN(c3cc4c(cc3F)c(=O)c(C(=O)O)cn4C3CC3)CC2)c(=S)n1-c1cccc(I)c1: 5.20
- O=C(O)c1cn(C2CC2)c2cc(N3CCN(Cn4nc(-c5cccc(O)c5)n(-c5cc(Cl)cc(Cl)c5)c4=S)CC3)c(F)cc2c1=O: 5.22
- O=C(O)c1cn(C2CC2)c2cc(N3CCN(Cn4nc(-c5cccc(O)c5)n(-c5cccc(I)c5)c4=S)CC3)c(F)cc2c1=O: 5.01
